- TESTED_ON: Multidrug efflux pump subunit AcrB (Escherichia coli (strain K12)) (UniProt P31224)
- Sequence (P31224 whole entry): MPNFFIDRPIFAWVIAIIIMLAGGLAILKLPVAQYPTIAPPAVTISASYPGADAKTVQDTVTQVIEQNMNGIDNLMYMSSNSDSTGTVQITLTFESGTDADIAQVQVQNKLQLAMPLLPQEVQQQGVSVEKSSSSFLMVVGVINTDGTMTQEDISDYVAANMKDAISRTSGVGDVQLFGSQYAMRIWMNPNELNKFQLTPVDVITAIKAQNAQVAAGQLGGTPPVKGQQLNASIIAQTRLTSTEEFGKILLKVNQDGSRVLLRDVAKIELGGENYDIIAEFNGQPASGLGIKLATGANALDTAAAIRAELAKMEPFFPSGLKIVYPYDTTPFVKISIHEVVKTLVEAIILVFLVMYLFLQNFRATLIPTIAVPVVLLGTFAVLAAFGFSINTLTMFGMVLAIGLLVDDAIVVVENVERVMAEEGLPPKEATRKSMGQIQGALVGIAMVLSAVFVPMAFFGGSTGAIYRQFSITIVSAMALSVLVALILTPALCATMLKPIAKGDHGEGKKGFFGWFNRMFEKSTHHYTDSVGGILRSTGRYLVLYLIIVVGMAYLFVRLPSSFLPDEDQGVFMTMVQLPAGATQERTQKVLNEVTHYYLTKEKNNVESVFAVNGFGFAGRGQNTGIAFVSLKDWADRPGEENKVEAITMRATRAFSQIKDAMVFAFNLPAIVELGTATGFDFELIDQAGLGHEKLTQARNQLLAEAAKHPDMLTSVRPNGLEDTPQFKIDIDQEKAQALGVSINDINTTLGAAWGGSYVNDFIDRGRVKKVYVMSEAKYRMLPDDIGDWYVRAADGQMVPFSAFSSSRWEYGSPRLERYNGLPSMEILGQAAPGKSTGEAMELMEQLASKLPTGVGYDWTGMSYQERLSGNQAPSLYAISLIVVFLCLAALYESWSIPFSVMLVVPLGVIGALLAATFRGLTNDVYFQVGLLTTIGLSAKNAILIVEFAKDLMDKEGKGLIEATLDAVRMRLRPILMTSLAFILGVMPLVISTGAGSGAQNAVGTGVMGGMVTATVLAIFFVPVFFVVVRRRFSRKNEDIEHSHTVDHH
- ASSAY_DETAILS: Inhibition of AcrB in multidrug-resistant Escherichia coli BW25113 assessed as potentiation of levofloxacin-induced antibacterial activity by measuring levofloxacin MIC at 64 ug/ml by checkerboard titration method (reference value: 0.06 ug/ml)
- CONDITION_DESCRIPTION: dose 64.0 µg/ml
Quick list: MIC per entry.
Please respond with the number in µg/mL and leave the unit unwritten.

The cases that follow already have their MIC on record.
CNC(=O)c1ccc(COc2cccc3c4c(c(Cn5cnnn5)cc23)CCC(C)(C)O4)cc1    0.06
C[C@@H](Cc1ccc(O)c(O)c1)[C@@H](C)Cc1ccc(O)c(O)c1    0.03
CC1(C)CCc2c(Cn3cnnn3)cc3c(OCc4ccc([N+](=O)[O-])cc4)cccc3c2O1    0.06
CC1(C)CCc2c(-c3nnco3)cc3c(OCc4ccc(C#N)cc4)cccc3c2O1    0.06
CC1(C)CCc2c(C(=O)O)cc3c(OCc4ccccc4)cccc3c2O1    0.01
CC1(C)CCc2c(C(=O)N3CCOCC3)cc3c(OCc4ccc(C(F)(F)F)cc4)cccc3c2O1    0.06
CC1(C)CC(=O)c2ccc(OCCNC3CCCC3)cc2O1    0.03
COc1cccc(COc2cccc3c4c(c(C(=O)O)cc23)CCC(C)(C)O4)c1    0.06

Request: Data request, read-out MIC, for CC1(C)CCc2c(C(=O)N3CCOCC3)cc3c(OCc4ccccc4)cccc3c2O1
Result: 0.03

Request: Item: CC1(C)CCc2c(-c3nnco3)cc3c(OCc4ccc([N+](=O)[O-])cc4)cccc3c2O1
Result: 0.06

* * *

- ASSAY_DETAILS: Cytotoxicity against human HepG2 cells assessed as growth inhibition at 10 uM relative to control
- Format: cell-based
- CONDITION_DESCRIPTION: read-out: GI
MEASUREMENT_NAME: inhibition at 10 µM (%)
Please respond with the number in % and leave the unit unwritten.

CC1(C)CCc2c(C(=O)N3CCOCC3)cc3c(OCc4ccccc4)cccc3c2O1    2

Please find the next compound below.
Request: Data request, read-out inhibition at 10 µM, for Cc1ccc(COc2cccc3c4c(c(-c5nnco5)cc23)CCC(C)(C)O4)cc1
Result: 6

* * *

- ASSAY_DETAILS: Toxicity in multidrug-resistant Escherichia coli BW25113 assessed as growth inhibition by two-fold broth dilution method
Quick list: MIC per entry.

CC1(C)CC(=O)c2ccc(OCC(=O)Nc3ccc(C#N)c(C(F)(F)F)c3)cc2O1    > 512 µg/mL

Request: Data request, read-out MIC, for CC1CN(C(=O)c2cc3c(OCc4ccc([N+](=O)[O-])cc4)cccc3c3c2CCC(C)(C)O3)CC(C)O1 (stereo not given)
Result: > 512 µg/mL

Request: Item: CC1(C)CCc2c(C(=O)N3CCOCC3)cc3c(OCc4ccc(C(F)(F)F)cc4)cccc3c2O1
Result: > 512 µg/mL

Request: Item: CC1(C)CC(=O)c2ccc(OCCNC3CCCC3)cc2O1
Result: > 512 µg/mL

Request: Item: Cc1ccc(COc2cccc3c4c(c(-c5nnco5)cc23)CCC(C)(C)O4)cc1
Result: > 512 µg/mL

* * *

Quick list: MIC per entry.
- TESTED_ON: Multidrug efflux pump subunit AcrB (Escherichia coli (strain K12)) (UniProt P31224)
- ASSAY_DETAILS: Inhibition of AcrB in multidrug-resistant Escherichia coli BW25113 assessed as potentiation of levofloxacin-induced antibacterial activity by measuring levofloxacin MIC at 64 ug/ml by checkerboard titration method (reference value: 0.06 ug/ml)
- CONDITION_DESCRIPTION: dose 64.0 µg/ml
Please respond with the number in µg/mL and leave the unit unwritten.

CC1CN(C(=O)c2cc3c(OCc4c(Cl)cccc4Cl)cccc3c3c2CCC(C)(C)O3)CC(C)O1 (stereo not drawn)    0.03
CC1(C)CCc2c(Cn3cnnn3)cc3c(OCc4ccc(OC(F)(F)F)cc4)cccc3c2O1    0.06

Please find the next compound below.
Request: Data request, read-out MIC, for C=CC(=O)Nc1ccc(COc2cccc3c4c(c(Cn5cnnn5)cc23)CCC(C)(C)O4)cc1
Result: 0.06
